Test system: MES-SA (Other Solid Carcinomas)
assay details: combination Emax (second highest fraction inhibited in the dose matrix, 72 h); higher = more inhibition; extreme values may be limits of the assay
Recorded combination Emax, one value per entry.
# answer = number (no unit)

Study these solved cases before continuing.
CC(=O)c1c(C)c2cnc(Nc3ccc(N4CCNCC4)cn3)nc2n(C2CCCC2)c1=O [Palbociclib] + CN(CC[C@H](CSC1=CC=CC=C1)NC2=C(C=C(C=C2)S(=O)(=O)NC(=O)C3=CC=C(C=C3)N4CCC(CC4)[C@H](C5=CC=CC=C5C6=CC=C(C=C6)Cl)O)S(=O)(=O)C(F)(F)F)CCO [AZD4320] (first compound max 10 µM, 7x7, partner max 1 µM): 0.445
COc1nnc2ccc(N3CCC(c4ccc(OCCN5CCN(C)C(=O)[C@H]5C)cc4)CC3)nn12 [AZD5153] + C[C@@H]1COCCN1C2=NC(=NC(=C2)C3(CC3)[S@](=N)(=O)C)C4=C5C=CNC5=NC=C4 [AZD6738] (first compound max 1 µM, 7x7, partner max 10 µM): 0.763

Now examine the next entry.
Req: Entry COc1cccc(OCCCN)c1-c1cc(Nc2cnc(C#N)cn2)n[nH]1 [Prexasertib] + O=C(c1cc(Cc2n[nH]c(=O)c3ccccc23)ccc1F)N1CCN(C(=O)C2CC2)CC1 [Olaparib] (first compound max 1 µM, 7x7, partner max 10 µM) has what combination Emax?
Resp: 0.809

###

System: MSTO-211H (Mesothelioma)
assay details: combination Emax (second highest fraction inhibited in the dose matrix, 72 h); higher = more inhibition; extreme values may be limits of the assay
observable: combination Emax
// keep it numeric: no unit symbol after the value

C[C@@H]1COCCN1c1cc(C2([S@](C)(=N)=O)CC2)nc(-c2ccnc3[nH]ccc23)n1 [AZD6738] + Nc1ccn([C@@H]2O[C@H](CO)[C@@H](O)C2(F)F)c(=O)n1 [Gemcitabine] (first compound max 10 µM, 7x7, partner max 0.3 µM): 0.855
CN(CCO)CC[C@H](CSc1ccccc1)Nc1ccc(S(=O)(=O)NC(=O)c2ccc(N3CCC([C@@H](O)c4ccccc4-c4ccc(Cl)cc4)CC3)cc2)cc1S(=O)(=O)C(F)(F)F [AZD4320] + C1CN(CCC1(C(=O)N[C@@H](CCO)C2=CC=C(C=C2)Cl)N)C3=NC=NC4=C3C=CN4 [Capivasertib] (first compound max 1 µM, 7x7, partner max 3 µM): 0.48
Cc1cc2ncnn2cc1Nc1ncc2c(n1)n(C1CCOCC1)c(=O)n2C [AZD7648] + C[C@@H]1COCCN1C2=NC(=NC(=C2)C3(CC3)[S@](=N)(=O)C)C4=C5C=CNC5=NC=C4 [AZD6738] (first compound max 10 µM, 7x7, partner max 10 µM): 0.681

Req: Name the recorded combination Emax for C[C@@H](Oc1cc(-c2cnn(C3CCNCC3)c2)cnc1N)c1c(Cl)ccc(F)c1Cl [Crizotinib] + CC1=C(C(=CC=C1)Cl)NC(=O)C2=CN=C(S2)NC3=CC(=NC(=N3)C)N4CCN(CC4)CCO [Dasatinib] (first compound max 10 µM, 7x7, partner max 2 µM) .
Resp: 0.674

###

System: D-283MED (Other Solid Carcinomas)
assay details: combination Emax (second highest fraction inhibited in the dose matrix, 72 h); higher = more inhibition; extreme values may be limits of the assay
Some molecules, each annotated with its measured combination Emax.
Respond with the number and no other words.

CS(=O)(=O)CCNCc1ccc(-c2ccc3ncnc(Nc4ccc(OCc5cccc(F)c5)c(Cl)c4)c3c2)o1 [Lapatinib] + Cn1cnc2c(F)c(Nc3ccc(Br)cc3Cl)c(C(=O)NOCCO)cc21 [Selumetinib] (first compound max 10 µM, 7x7, partner max 10 µM): 0.935
COc1nnc2ccc(N3CCC(c4ccc(OCCN5CCN(C)C(=O)[C@H]5C)cc4)CC3)nn12 [AZD5153] + C=CCn1c(=O)c2cnc(Nc3ccc(N4CCN(C)CC4)cc3)nc2n1-c1cccc(C(C)(C)O)n1 [AZD1775] (first compound max 1 µM, partner max 1 µM): 0.988
Cc1cc2ncnn2cc1Nc1ncc2c(n1)n(C1CCOCC1)c(=O)n2C [AZD7648] + CCN(CCO)CCCOc1ccc2c(Nc3cc(CC(=O)Nc4cccc(F)c4)[nH]n3)ncnc2c1 [AZD2811] (first compound max 10 µM, 7x7, partner max 1 µM): 0.74
O=C(c1cc(Cc2n[nH]c(=O)c3ccccc23)ccc1F)N1CCN(C(=O)C2CC2)CC1 [Olaparib] + COc1nnc2ccc(N3CCC(c4ccc(OCCN5CCN(C)C(=O)[C@H]5C)cc4)CC3)nn12 [AZD5153] (first compound max 10 µM, 7x7, partner max 1 µM): 0.881

Req: Entry Cn1cnc2c(F)c(Nc3ccc(Br)cc3Cl)c(C(=O)NOCCO)cc21 [Selumetinib] + CC(C)n1c(=O)n(C)c2cnc3cc(F)c(-c4ccc(OCCCN5CCCCC5)nc4)cc3c21 [AZD1390] (first compound max 10 µM, 7x7, partner max 0.3 µM) : reported combination Emax = ?
Resp: 0.148

Req: Query (molecule): CN(C)CCCOc1ccc(-c2ccc3ncc4c(c3c2)n(C2CCOCC2)c(=O)n4C)cn1 [AZD0156] + C=CCn1c(=O)c2cnc(Nc3ccc(N4CCN(C)CC4)cc3)nc2n1-c1cccc(C(C)(C)O)n1 [AZD1775] (first compound max 1 µM, partner max 1 µM) ; field requested: combination Emax
Resp: 0.996

Req: I would be grateful if you could share the reported combination Emax for C=CCn1c(=O)c2cnc(Nc3ccc(N4CCN(C)CC4)cc3)nc2n1-c1cccc(C(C)(C)O)n1 [AZD1775] + CCc1c2c(nc3ccc(O)cc13)-c1cc3c(c(=O)n1C2)COC(=O)[C@]3(O)CC [SN-38] (first compound max 1 µM, partner max 0.3 µM) .
Resp: 0.996
